Biological target: Ubiquitin carboxyl-terminal hydrolase 1 (Homo sapiens) (UniProt O94782)
Sequence (O94782 whole entry, looked up): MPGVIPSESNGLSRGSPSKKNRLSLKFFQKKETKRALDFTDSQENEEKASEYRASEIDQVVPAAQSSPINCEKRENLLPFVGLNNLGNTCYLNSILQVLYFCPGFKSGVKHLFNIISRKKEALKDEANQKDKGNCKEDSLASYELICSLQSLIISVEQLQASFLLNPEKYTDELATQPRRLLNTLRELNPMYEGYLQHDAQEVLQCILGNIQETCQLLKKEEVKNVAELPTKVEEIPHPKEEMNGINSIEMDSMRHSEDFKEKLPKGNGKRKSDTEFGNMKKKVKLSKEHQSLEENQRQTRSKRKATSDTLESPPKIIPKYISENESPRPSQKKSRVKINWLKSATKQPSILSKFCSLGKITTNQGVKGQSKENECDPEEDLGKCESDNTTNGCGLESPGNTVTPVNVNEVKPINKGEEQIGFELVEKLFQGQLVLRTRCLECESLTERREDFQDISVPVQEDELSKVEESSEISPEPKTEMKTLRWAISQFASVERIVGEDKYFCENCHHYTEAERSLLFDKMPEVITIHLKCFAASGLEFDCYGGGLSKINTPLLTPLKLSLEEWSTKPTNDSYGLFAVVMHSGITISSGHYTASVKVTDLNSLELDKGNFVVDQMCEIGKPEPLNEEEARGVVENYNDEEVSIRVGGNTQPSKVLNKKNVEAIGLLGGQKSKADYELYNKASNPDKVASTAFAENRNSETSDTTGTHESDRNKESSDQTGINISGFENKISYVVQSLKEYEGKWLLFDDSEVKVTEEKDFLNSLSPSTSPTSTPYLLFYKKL
Experiment: Inhibitors of USP1/UAF1: SAR in Primary Assay
Settings: Recombinant USP1/UAF1, Ub-Rhodamine cleavage fluorescence; series mostly up to 57.1 µM
Inconclusive results are not listed. Calls of active or inactive are those of the source. Calls come from the whole dose curve; as a rule, active = well fitted inhibition curve with a large enough effect; inconclusive = small, poorly fitted or top-dose-only effect; inactive = flat fitted curve, though single readings scatter.

compound | experimental-target | Potency
CN(Cc1ccc(-c2ccccc2)cc1)c1nc(-c2ccccc2C(F)(F)F)nc2ccccc12 | Ubiquitin carboxyl-terminal hydrolase 1 (Homo sapiens) (UniProt O94782) | 4290 nM (active)
CC(C)c1ccccc1-c1ncc(F)c(NCC2CCN(c3cccnc3)CC2)n1 | Ubiquitin carboxyl-terminal hydrolase 1 (Homo sapiens) (UniProt O94782) | 96.1 nM (active)
Cc1cnc(-c2ccccc2C(C)(C)C)nc1NCc1ccc(-n2ccnn2)cc1 | Ubiquitin carboxyl-terminal hydrolase 1 (Homo sapiens) (UniProt O94782) | 136 nM (active)
Cc1ccc(-c2ccc(C(C)Nc3nc(-c4ccccc4C(C)C)ncc3C)cc2)cn1 (stereo not given) | Ubiquitin carboxyl-terminal hydrolase 1 (Homo sapiens) (UniProt O94782) | 341 nM (active)
CC(C)c1ccccc1-c1nc(NCC2CCN(c3cccnc3)CC2)c2ccccc2n1 | Ubiquitin carboxyl-terminal hydrolase 1 (Homo sapiens) (UniProt O94782) | 85.7 nM (active)
Cc1nc(-c2ccccc2C(C)C)nc(NCc2ccc(-c3cccnc3)cc2)c1C | Ubiquitin carboxyl-terminal hydrolase 1 (Homo sapiens) (UniProt O94782) | 136 nM (active)
Cc1cnc(-c2ccccc2C(C)C)nc1NCc1cccs1 | Ubiquitin carboxyl-terminal hydrolase 1 (Homo sapiens) (UniProt O94782) | 215 nM (active)
FC(F)(F)c1ccccc1-c1nc2c(c(NCc3ccc(-c4cccnc4)cc3)n1)CCC2 | Ubiquitin carboxyl-terminal hydrolase 1 (Homo sapiens) (UniProt O94782) | 681 nM (active)
Cc1cnc(-c2ccccc2C(C)C)nc1NC(C)c1ccc(-c2cccnc2)cc1 (stereo not given) | Ubiquitin carboxyl-terminal hydrolase 1 (Homo sapiens) (UniProt O94782) | 136 nM (active)
Cc1cnc(-c2ccccc2C(C)C)nc1NCc1cccnc1 | Ubiquitin carboxyl-terminal hydrolase 1 (Homo sapiens) (UniProt O94782) | 2150 nM (active)
